Assign log P to each entry below.
type: physicochemical; details: HPLC on reversed phase columns, method [a]: pH 2.7, 0.1% formic acid in water and acetonitrile, linear gradient 10% to 95% acetonitrile

Entry C#Cc1cnc2ccc(C3=NOC(C)(C(=O)NNC(C)C4CC4)C3)cc2c1 (centres unmarked) , log P reported as 2.21[a]

Entry CC1(C(=O)NCCc2ccc(C(F)(F)F)cc2Cl)CC(c2ccc3ncc(Br)cc3c2)=NO1 (centres unmarked) , log P reported as 4.21[a]

Entry C#Cc1cnc2ccc(C3=NOC(OC)(C(=O)NCc4cn(CC)nc4C(F)(F)F)C3)cc2c1 (racemic) , log P reported as 2.80[a]

Entry CC(C)NC(=O)C1(C#N)CC(c2ccc3ncc(Br)cc3c2)=NO1 (centres unmarked) , log P reported as 2.86[a]

Entry C#Cc1cnc2ccc(C3=NOC(C)(C(=O)NCc4cnn(CC(F)(F)F)c4)C3)cc2c1 (centres unmarked) , log P reported as 2.34[a]

Entry CCC(C)NC(=O)C1(C)CC(c2ccc3ncc(Br)cc3c2)=NO1 (centres unmarked) , log P reported as 3.37[a]

Entry Cc1cc(CNC(=O)C2(C)CC(c3ccc4ncc(Br)cc4c3)=NO2)ccn1 (centres unmarked) , log P reported as 1.40[a]

Entry C#Cc1cnc2ccc(C3=NOC(C=C)(C(=O)NC(C)C)C3)cc2c1 (centres unmarked) , log P reported as 2.73[a]

----------
type: physicochemical; conditions: HPLC reversed phase, pH 2.7, 0.1% formic acid in water / acetonitrile, linear gradient 10% to 95% acetonitrile; calibration with alkan-2-ones; read-out: log P (HCOOH)
observed-property: chromatographic logP
Answer field: number only, no words.

Entry CC(C)NC(=O)C1(C)CC(c2ccc3ncc(C#C[Si](C)(C)C)cc3c2)=NO1 (stereo not shown) , chromatographic logP reported as 4.41

----------
type: physicochemical; conditions: HPLC on reversed phase columns, method [a]: pH 2.7, 0.1% formic acid in water / acetonitrile, linear gradient 10% to 95% acetonitrile
Assign log P to each entry below.

Entry CC1(C(=O)NCCF)CC(c2ccc3ncc(Br)cc3c2)=NO1 (stereo not drawn) , log P reported as 2.30[a]

Entry C#CC1(C(=O)NCc2cn(CC)nc2C)CC(c2ccc3ncc(Br)cc3c2)=NO1 (stereo not drawn) , log P reported as 2.57[a]

Entry CC(C)NC(=O)C12OCCCC1C(c1ccc3ncc(Br)cc3c1)=NO2 (stereo not drawn) , log P reported as 2.90[a]

Entry CC1(C(=O)NC2CCCCC2)CC(c2ccc3ncc(Br)cc3c2)=NO1 (stereo not drawn) , log P reported as 3.63^[a]

Entry C#Cc1cnc2ccc(C3=NOC(C)(C(=O)NC(C)(C#N)C4CC4)C3)cc2c1 (stereo not drawn) , log P reported as 2.75[a]

Entry C#Cc1cnc2c(C)cc(C3=NOC(OC)(C(=O)NCCCOCC)C3)cc2c1 (stereo not drawn) , log P reported as 3.00[a]

Entry COC1(C(=O)NC(C)C)CC(c2cc(C)c3ncc(Br)cc3c2)=NO1 (stereo not drawn) , log P reported as 3.37[a]

Entry CCOCCCNC(=O)C1(C)CC(c2cc(C)c3ncc(Br)cc3c2)=NO1 (racemic) , log P reported as 3.48[a]

Entry C=C(C)C1(C(=O)NCCCOCC)CC(c2ccc3ncc(Br)cc3c2)=NO1 (stereo not drawn) , log P reported as 3.37[a]

----------
type: physicochemical; conditions: method [a]: HPLC/LC-MS on reversed phase at pH 2.7, 0.1% formic acid in water / acetonitrile, gradient 10% to 95% acetonitrile
observed-property: log P

Entry CC(C)ONC(=O)C1(C)CC(c2ccc3ncc(Br)cc3c2)=NO1 (racemic) [compound 388] , log P reported as 2.44[a]

Entry CC(C)(C)ONC(=O)C1(C)CC(c2ccc3ncc(Br)cc3c2)=NO1 (racemic) [compound 373] , log P reported as 2.66[a]

Entry C#Cc1cnc2ccc(C3=NOC(CC)(C(=O)NC4CCC4)C3)cc2c1 (racemic) [compound 447] , log P reported as 2.94[a]

Entry CCn1cc(CNC(=O)C2(C)ON=C(c3ccc4ncc(Br)cc4c3)C2OC)c(C)n1 (mixture of isomers) [compound 433] , log P reported as 2.44[a]

----------
assay type: physicochemical; conditions: method [a]: HPLC/LC-MS on reversed phase at pH 2.7, 0.1% formic acid in water / acetonitrile, linear gradient 10% to 95% acetonitrile
observed-property: log P

Entry C#Cc1cnc2ccc(C3=NOC(C)(C(=O)NCc4ccc5ncccc5c4)C3)cc2c1 (stereo not shown) , log P reported as 1.59^[a]

Entry CCn1cc(CNC(=O)C2(C)CC(c3ccc4ncc(Br)cc4c3)=NO2)c(C)n1 (stereo not shown) , log P reported as 2.39^[a]

Entry C#Cc1cnc2ccc(C3=NOC(C)(C(=O)NCc4c(C)nn(C)c4C)C3)cc2c1 (stereo not shown) , log P reported as 1.91^[a]

Entry C#Cc1cnc2ccc(C3=NOC(C)(C(=O)NC4CCC4)C3)cc2c1 (stereo not shown) , log P reported as 2.58^[a]

Entry CC1(C(=O)NCC2CCOC2)CC(c2ccc3ncc(Br)cc3c2)=NO1 (stereo not shown) , log P reported as 2.2^[a]

Entry CC1(C(=O)NCC2CCC(C(F)(F)F)CC2)CC(c2ccc3ncc(Br)cc3c2)=NO1 (stereo not shown) , log P reported as 4.01^[a]

Entry C#Cc1cc2cc(C3=NOC(C)(C(=O)NC(C)C)C3)ccc2nc1Cl (stereo not shown) , log P reported as 3.08^[a]

Entry CC1(C(=O)NCc2ccnc(N3CCOCC3)c2)CC(c2ccc3ncc(Br)cc3c2)=NO1 (stereo not shown) , log P reported as 1.51^[a]

Entry CCn1cc(CNC(=O)C2(OC)CC(c3ccc4ncc(Br)cc4c3)=NO2)c(C)n1 (stereo not shown) , log P reported as 2.31^[a]

Entry CCn1cc(CNC(=O)C2(Cc3ccccc3)CC(c3ccc4ncc(Br)cc4c3)=NO2)c(C)n1 (stereo not shown) , log P reported as 3.23^[a]

----------
system: Septoria tritici; assay: In vivo preventive test on Septoria tritici (leaf spot on wheat); conditions: 500 ppm; wheat plants sprayed 24 hours before contamination; grading 21 to 28 days after contamination vs control plants
Assign % of efficacy (protection) to each entry below.
The reply should be a number in %, with the unit left off.

Entry COC1(C(=O)NC(C)C)CC(c2ccc3ncc(Br)cc3c2)=NO1 (single isomer, unassigned) [compound 285] , % of efficacy (protection) reported as 100

Entry COC1(C(=O)NC(C)C)CC(c2ccc3ncc(I)cc3c2)=NO1 (racemic) [compound 436] , % of efficacy (protection) reported as 100

Entry CCn1cc(CNC(=O)C23CCCC2C(c2ccc4ncc(Br)cc4c2)=NO3)c(C)n1 (stereo not shown) [compound 261] , % of efficacy (protection) reported as 97

Entry C#Cc1cnc2ccc(C3=NOC(C)(C(=O)NC(C)(C#N)C4CC4)C3)cc2c1 (stereo not shown) [compound 523] , % of efficacy (protection) reported as 97

----------
Assign log P to each entry below.
type: physicochemical; conditions: HPLC on reversed phase columns, method [a]: pH 2.7, 0.1% formic acid in water and acetonitrile, linear gradient 10% to 95% acetonitrile

Entry C#Cc1cnc2ccc(C3=NOC(C)(C(=O)NCC4(C)CCC4)C3)cc2c1 (centres unmarked) , log P reported as 3.27[a]

Entry C#Cc1cnc2ccc(C3=NOC(C)(C(=O)NCc4cccnc4N(C)C)C3)cc2c1 (centres unmarked) , log P reported as 1.43[a]

Entry Cc1cccc(CNC(=O)C2(C)CC(c3ccc4ncc(Br)cc4c3)=NO2)n1 (centres unmarked) , log P reported as 1.60[a]

Entry C#Cc1cnc2ccc(C3=NOC(C)(C(=O)NCc4ccc(OC)nn4)C3)cc2c1 (centres unmarked) , log P reported as 2.05[a]

Entry C#Cc1cnc2ccc(C3=NOC(C)(C(=O)NCC4CC(F)(F)C4)C3)cc2c1 (centres unmarked) , log P reported as 2.71[a]

Entry CC1(C(=O)NC(C2CC2)C2CC2)CC(c2ccc3ncc(Br)cc3c2)=NO1 (centres unmarked) , log P reported as 3.57[a]

Entry Cn1c(C(=NOCc2cccc(NC(=O)C3(C)CC(c4ccc5ncc(Br)cc5c4)=NO3)n2)c2ccccc2)noc1=O (centres unmarked) , log P reported as 4.49[a]

Entry CC1(C(=O)N/C(=N/O)C2CC2)CC(c2ccc3ncc(Br)cc3c2)=NO1 (centres unmarked) , log P reported as 2.35[a]

Entry C#Cc1cnc2ccc(C3=NOC(C)(C(=O)NCc4cc(C(C)C)ccn4)C3)cc2c1 (centres unmarked) , log P reported as 1.84[a]

Entry Cc1ccncc1CNC(=O)C1(C)CC(c2ccc3ncc(Br)cc3c2)=NO1 (centres unmarked) , log P reported as 1.43[a]

Entry C=CC1(C(=O)NCCCOCC)CC(c2ccc3ncc(Br)cc3c2)=NO1 (centres unmarked) , log P reported as 3.06[a]

Entry C#Cc1cnc2ccc(C3=NOC(C)(C(=O)NCc4cncc(C#N)c4)C3)cc2c1 (centres unmarked) , log P reported as 2.10[a]

Entry CC1(C(=O)NCc2ccnc(NC3CC3)c2)CC(c2ccc3ncc(Br)cc3c2)=NO1 (centres unmarked) , log P reported as 1.58[a]

Entry C#Cc1cnc2ccc(C3=NOC(OC)(C(=O)NCc4cnccn4)C3)cc2c1 (centres unmarked) , log P reported as 1.85[a]

Entry C#Cc1cnc2ccc(C3=NOC(C)(C(=O)NCc4ccc(CC)cn4)C3)cc2c1 (centres unmarked) , log P reported as 1.82[a]

Entry C=CC1(C(=O)NCC2COC(C)(C)O2)CC(c2ccc3ncc(I)cc3c2)=NO1 (centres unmarked) , log P reported as 3.11[a]

Entry C#Cc1cnc2ccc(C3=NOC(C)(C(=O)NCc4cncc(OC)n4)C3)cc2c1 (centres unmarked) , log P reported as 2.25[a]
